Data origin, for the record: ChEMBL document CHEMBL1136219

test system: Staphylococcus aureus; test: Minimum inhibitory concentration against Staphylococcus aureus; type: functional
Entries annotated with measured MIC
OBSERVED_PROPERTY: MIC

>  <MOLECULE_SMILES>
COc1cc(-c2nc3nonc3nc2O)cc(OC)c1OC

>  <OBSERVED_PROPERTY>
MIC

>  <RESULT>
> 128 µg/mL

$$$$
>  <MOLECULE_SMILES>
COc1ccc(-c2nc3nonc3nc2O)cc1

>  <OBSERVED_PROPERTY>
MIC

>  <RESULT>
64 µg/mL

$$$$
>  <MOLECULE_SMILES>
Oc1nc2nonc2nc1-c1c[nH]c2ccccc12

>  <OBSERVED_PROPERTY>
MIC

>  <RESULT>
> 128 µg/mL

$$$$
